Test system: Saccharomyces cerevisiae BY4741 SeMeCo community
Assay: z-score of subpopulation abundance vs DMSO median, subpopulation auxotrophic for HLM; higher = larger share of this subpopulation than in DMSO controls
Details: 10 µM; 24 h; SM minimal medium; subpopulation (auxotrophy): HLM
Structures can show the parent of a compound that is named as a salt.
Documented z-score of subpopulation abundance across a set of compounds

# annotated cases, reported z-score of subpopulation abundance shown
INSERT INTO measurements (compound, outcome_measure, observed_result) VALUES
  ('C=CCN1CCCC1CNC(=O)c1cc2nn[nH]c2cc1OC (stereo not given) [Alizapride HCl]', 'z-score of subpopulation abundance', -0.44),
  ('Cn1nnc(-c2ccc(-c3ccc(N4C[C@H](COP(=O)(O)O)OC4=O)cc3F)cn2)n1 [Tedizolid Phosphate]', 'z-score of subpopulation abundance', -0.8);

The reported z-score of subpopulation abundance value, Saccharomyces cerevisiae BY4741 SeMeCo community, for C=CC1=C(C(=O)O)N2C(=O)[C@@H](NC(=O)/C(=N\OCC(=O)O)c3csc(N)n3)[C@H]2SC1 [Cefixime] reads -0.25

Here C#C[C@]1(O)CC[C@H]2[C@@H]3CCC4=CCCC[C@@H]4[C@H]3C(=C)C[C@@]21CC [Desogestrel] was tested on Saccharomyces cerevisiae BY4741 SeMeCo community, and its z-score of subpopulation abundance came to -0.87

Hey, Saccharomyces cerevisiae BY4741 SeMeCo community data for NC(=O)N/N=C/c1ccc([N+](=O)[O-])o1 [Nitrofural] : z-score of subpopulation abundance came out at 3.28

Record CO/N=C(\C(=O)N[C@@H]1C(=O)N2C(C(=O)OCOC(=O)C(C)(C)C)=C(/C=C\c3scnc3C)CS[C@H]12)c1csc(N)n1 [Cefditoren Pivoxil] ; system Saccharomyces cerevisiae BY4741 SeMeCo community; z-score of subpopulation abundance = 0.31

Observed z-score of subpopulation abundance, Saccharomyces cerevisiae BY4741 SeMeCo community, C[C@H]1c2cccc(O)c2C(O)=C2C(=O)[C@]3(O)C(O)=C(C(N)=O)C(=O)[C@@H](N(C)C)[C@@H]3[C@@H](O)[C@@H]21 [Doxycycline monohydrate] : 0.18

Sample CO/N=C(\C(=O)N[C@@H]1C(=O)N2C(C(=O)O)=C(CSc3nc(=O)c(O)nn3C)CS[C@H]12)c1csc(N)n1 [Ceftriaxone Sodium Trihydrate] , system: Saccharomyces cerevisiae BY4741 SeMeCo community. Its z-score of subpopulation abundance is 0.5

Saccharomyces cerevisiae BY4741 SeMeCo community assay, compound O=C(N[C@H](CO)[C@H](O)c1ccc([N+](=O)[O-])cc1)C(Cl)Cl [Chloramphenicol] , recorded z-score of subpopulation abundance = 0.01

Saccharomyces cerevisiae BY4741 SeMeCo community data for O=C1Cc2cc(CCN3CCN(c4nsc5ccccc45)CC3)c(Cl)cc2N1 [Ziprasidone HCl] ; its z-score of subpopulation abundance: 1.1

The compound CCN(CC)CCNC(=O)c1cc(Cl)c(N)cc1OC [Metoclopramide HCl] , when measured on Saccharomyces cerevisiae BY4741 SeMeCo community, yielded z-score of subpopulation abundance of -0.58

###

System: Saccharomyces cerevisiae BY4741 SeMeCo community
Test: z-score of subpopulation abundance vs DMSO median, subpopulation auxotrophic for HUM; higher = larger share of this subpopulation than in DMSO controls
Details: 10 µM; 24 h; SM minimal medium; subpopulation (auxotrophy): HUM
Structures can show the parent of a compound that is named as a salt.
Outcome measure: z-score of subpopulation abundance
Give a plain numeric answer without units written out.

Solved cases below.
INSERT INTO assay_data (compound, outcome_measure, observed_result) VALUES
  ('Cc1nnc(SCC2=C(C(=O)O)N3C(=O)[C@@H](NC(=O)Cn4cnnn4)[C@H]3SC2)s1 [Cefazolin Sodium]', 'z-score of subpopulation abundance', 0.08),
  ('CN1[C@@H](CC(=O)c2ccccc2)CCC[C@H]1C[C@H](O)c1ccccc1 [Lobeline hydrochloride]', 'z-score of subpopulation abundance', 0.22),
  ('CN[C@@H]1[C@H](O)[C@H](NC)[C@H]2O[C@@]3(O)C(=O)C[C@@H](C)O[C@H]3O[C@@H]2[C@H]1O [Spectinomycin 2HCl]', 'z-score of subpopulation abundance', -0.21);

Continue with the compound presented below.
// Clc1ccc(C(Cn2ccnc2)OCc2csc3c(Cl)cccc23)c(Cl)c1 (centres undefined) [Sertaconazole nitrate] : z-score of subpopulation abundance value = 3.4

###

Test system: Saccharomyces cerevisiae BY4741 SeMeCo community
Assay: z-score of subpopulation abundance vs DMSO median, subpopulation auxotrophic for M; higher = larger share of this subpopulation than in DMSO controls
Conditions: 10 µM; 24 h; SM minimal medium; subpopulation (auxotrophy): M
Structures can show the parent of a compound that is named as a salt.
In this section we review reported z-score of subpopulation abundance values for a set of compounds.

Look over these answered cases.
INSERT INTO results (compound, observed_result) VALUES
  ('C1CCN2C[C@@H]3C[C@@H](CN4CCCC[C@@H]34)[C@H]2C1 [(-)-Sparteine Sulfate]', -0.03),
  ('COc1ccc(Cl)cc1C(=O)NCCc1ccc(S(=O)(=O)NC(=O)NC2CCCCC2)cc1 [Glyburide (Glibenclamide)]', -0.21),
  ('CCc1cccc2c3c([nH]c12)C(CC)(CC(=O)O)OCC3 (configuration not stated)', -0.55),
  ('CCCCC(=O)O[C@H]1CC[C@H]2[C@@H]3CCc4cc(O)ccc4[C@H]3CC[C@]12C [Estradiol valerate]', 0.23),
  ('CCN(CC)CCNC(=O)c1cc(S(C)(=O)=O)ccc1OC [Tiapride Hydrochloride]', 0.16);

Summary for this compound, CC(=O)N1CCN(c2ccc(OCC3COC(Cn4ccnc4)(c4ccc(Cl)cc4Cl)O3)cc2)CC1 (configuration not stated) : z-score of subpopulation abundance is -1.31

So, CCC[S+]([O-])c1ccc2[nH]c(NC(=O)OC)nc2c1 (configuration not stated) [Albendazole Oxide] ? Its z-score of subpopulation abundance was -0.33

Record COC(=O)C1=C(C)NC(C)=C(C(=O)OCCN(C)Cc2ccccc2)C1c1cccc([N+](=O)[O-])c1 (configuration not stated) [Nicardipine HCl] . Reported z-score of subpopulation abundance: 1.01

###

Attribute: z-score of subpopulation abundance
Tested on: Saccharomyces cerevisiae BY4741 SeMeCo community
Test: z-score of subpopulation abundance vs DMSO median, subpopulation auxotrophic for L; higher = larger share of this subpopulation than in DMSO controls
Conditions: 10 µM; 24 h; SM minimal medium; subpopulation (auxotrophy): L
Just the number, please, no unit after it.

Look over these answered cases.
INSERT INTO measurements (compound, observed_result) VALUES
  ('Nc1nc2c(ncn2COCCO)c(=O)[nH]1 [Aciclovir]', 1.26),
  ('CN(C)CCCC1(c2ccc(F)cc2)OCc2cc(C#N)ccc21 (stereo not given) [Citalopram HBr]', -0.17),
  ('C[C@H]1COc2c(N3CCN(C)CC3)c(F)cc3c(=O)c(C(=O)O)cn1c23 [Levofloxacin hydrate]', 1.32);

Sample COc1cc(C(C)=O)ccc1OCCCN1CCC(c2noc3cc(F)ccc23)CC1 [Iloperidone] ; z-score of subpopulation abundance observed: 0.2

z-score of subpopulation abundance in this record for COC(=O)Nc1nc2cc(C(=O)c3ccccc3)ccc2[nH]1 [Mebendazole] : 0.37

###

Test system: Saccharomyces cerevisiae BY4741 SeMeCo community
Test: z-score of subpopulation abundance vs DMSO median, subpopulation auxotrophic for HU; higher = larger share of this subpopulation than in DMSO controls
Details: 10 µM; 24 h; SM minimal medium; subpopulation (auxotrophy): HU
Counter-ions that a name gives are not always drawn.
Assign true to entries whose z-score of subpopulation abundance meets or exceeds -0.6; assign false to the rest.

Use these answered entries as a reference point.
INSERT INTO measurements (compound, label_class) VALUES
  ('CN(C)[C@@H]1C(=O)C(C(N)=O)=C(O)[C@@]2(O)C(=O)C3=C(O)c4c(O)ccc(Cl)c4[C@@H](O)[C@H]3C[C@@H]12 [Demeclocycline HCl]', 'true'),
  ('CN1CCN(c2cc3c(cc2F)c(=O)c(C(=O)O)cn3-c2ccc(F)cc2)CC1 [Difloxacin hydrochloride]', 'false'),
  ('CN(C)CCc1c[nH]c2ccc(Cn3cncn3)cc12 [Rizatriptan Benzoate]', 'false'),
  ('CN(CCN1CCC(OC(=O)Nc2ccccc2-c2ccccc2)CC1)C(=O)c1ccc(CN2CCC(C(N)=O)CC2)cc1', 'true'),
  ('O=C1OC(CN2CCOCC2)CN1/N=C/c1ccc([N+](=O)[O-])o1 (stereo not drawn) [Furaltadone HCl]', 'false');

# input Exam item: decide whether the reported z-score of subpopulation abundance for C[C@](N)(Cc1ccc(O)c(O)c1)C(=O)O is at least -0.6.
# output true

# input Textbook exercise: given the entry CCN1CCN(C(=O)N[C@@H](C(=O)N[C@@H]2C(=O)N3[C@@H]2SC(C)(C)[C@@H]3C(=O)O)c2ccccc2)C(=O)C1=O [Piperacillin Sodium] , state whether its z-score of subpopulation abundance is greater than or equal to -0.6.
# output true

# input Could you verify whether the entry CCCCCNC(=N)N/N=C/c1c[nH]c2ccc(OC)cc12 [Tegaserod Maleate] shows z-score of subpopulation abundance of no less than -0.6?
# output true

Attribution: the supplement of paper PMC8975748
